Biological target: UniProt:D7EZJ9
Assay: Dead-end and product inhibition analysis
Assay type: biochemical
Details: read-out: Ki,s; competitive vs. acetyl-CoA (varied); tryptamine fixed at 100 μM
outcome measure: Ki

// lookup Ki for CCCCCCCC/C=C\CCCCCCCC(=O)SCCNC(=O)CCNC(=O)[C@H](O)C(C)(C)COP(=O)(O)OP(=O)(O)OC[C@H]1O[C@@H](n2cnc3c(N)ncnc32)[C@H](O)[C@@H]1OP(=O)(O)O [oleoyl-CoA]
0.22 µM

---

Readings of kcat for the listed compounds
Biological target: UniProt:D7EZJ9
Experiment: Steady-state kinetic characterization with Ellman's reagent
Type: biochemical
Conditions: acyl-CoA substrate varied; 8.0 mM tryptamine, 22°C, 300 mM Tris pH 8.0
Write it as a number; the unit s⁻¹ goes unstated.

compound: CC(=O)SCCNC(=O)CCNC(=O)[C@H](O)C(C)(C)COP(=O)(O)OP(=O)(O)OC[C@H]1O[C@@H](n2cnc3c(N)ncnc32)[C@H](O)[C@@H]1OP(=O)(O)O
study system: UniProt:D7EZJ9
recorded result: 64
--
compound: CCCCCC(=O)SCCNC(=O)CCNC(=O)C(O)C(C)(C)COP(=O)(O)OP(=O)(O)OC[C@H]1O[C@@H](n2cnc3c(N)ncnc32)[C@H](O)[C@@H]1OP(=O)(O)O (stereo partly drawn)
study system: UniProt:D7EZJ9
recorded result: 1.3
--
compound: CCCCCCCC(=O)SCCNC(=O)CCNC(=O)[C@H](O)C(C)(C)COP(=O)(O)OP(=O)(O)OC[C@H]1O[C@@H](n2cnc3c(N)ncnc32)[C@H](O)[C@@H]1OP(=O)(O)O
study system: UniProt:D7EZJ9
recorded result: 0.36
--
compound: CCCC(=O)SCCNC(=O)CCNC(=O)[C@H](O)C(C)(C)COP(=O)(O)OP(=O)(O)OC[C@H]1O[C@@H](n2cnc3c(N)ncnc32)[C@H](O)[C@@H]1OP(=O)(O)O
study system: UniProt:D7EZJ9
recorded result: 4.0

// lookup kcat for `CCCCCCCCCC(=O)SCCNC(=O)CCNC(=O)[C@H](O)C(C)(C)COP(=O)(O)OP(=O)(O)OC[C@H]1O[C@@H](n2cnc3c(N)ncnc32)[C@H](O)[C@@H]1OP(=O)(O)O`
0.05

// lookup kcat for `CC(C)(COP(=O)(O)OP(=O)(O)OC[C@H]1O[C@@H](n2cnc3c(N)ncnc32)[C@H](O)[C@@H]1OP(=O)(O)O)[C@@H](O)C(=O)NCCC(=O)NCCSC(=O)CC(=O)O`
13

Hey, just so you know, these numbers are from paper PMC6334763.
